Reported absorption maximum wavelength (λmax) values for a set of compounds
Assay: Absorption measurement of the compound with spectrophotometer UV-3150
Assay type: physicochemical
Conditions: in 2-butanone

[
  {
    "compound": "CCCCC(CC)COC(=O)/C(C#N)=C\\C=C1/CCCN1C (stereo not shown)",
    "absorption maximum wavelength (λmax) [nm]": 389
  },
  {
    "compound": "CCOC(=O)/C(C#N)=C\\C=C1/CCCN1C [UVA-R01, reference compound]",
    "absorption maximum wavelength (λmax) [nm]": 389
  },
  {
    "compound": "CCOCCOC(=O)/C(C#N)=C\\C=C1/CCCN1C",
    "absorption maximum wavelength (λmax) [nm]": 389
  },
  {
    "compound": "COCCOCCOCCOC(=O)/C(C#N)=C\\C=C1/CCCN1C",
    "absorption maximum wavelength (λmax) [nm]": 388
  }
]

----------
Test: Absorption measurement of the compound with spectrophotometer UV-3150
Type: physicochemical
Details: in 2-butanone
Reported ε(420)/ε(400) values for a set of compounds
endpoint label: ε(420)/ε(400)

[
  {
    "compound": "CCCCC(CC)COC(=O)/C(C#N)=C\\C=C1/CCCN1C (stereo not shown)",
    "experimental result": 0.0132
  },
  {
    "compound": "CCOCCOC(=O)/C(C#N)=C\\C=C1/CCCN1C",
    "experimental result": 0.0153
  },
  {
    "compound": "COCCOCCOCCOC(=O)/C(C#N)=C\\C=C1/CCCN1C",
    "experimental result": 0.0161
  },
  {
    "compound": "CCOC(=O)/C(C#N)=C\\C=C1/CCCN1C [UVA-R01, reference compound]",
    "experimental result": 0.0122
  }
]

----------
Reported ε(400), gram absorption coefficient at a wavelength of 400 nm values for a set of compounds
Assay: Absorption measurement of the compound with spectrophotometer UV-3150
Format: physicochemical
Conditions: in 2-butanone
endpoint label: ε(400), gram absorption coefficient at a wavelength of 400 nm (L/g/cm)

[
  {
    "compound": "CCCCC(CC)COC(=O)/C(C#N)=C\\C=C1/CCCN1C (stereo not shown)",
    "experimental result": 108
  },
  {
    "compound": "CCOCCOC(=O)/C(C#N)=C\\C=C1/CCCN1C",
    "experimental result": 125
  },
  {
    "compound": "COCCOCCOCCOC(=O)/C(C#N)=C\\C=C1/CCCN1C",
    "experimental result": 95.2
  },
  {
    "compound": "CCOC(=O)/C(C#N)=C\\C=C1/CCCN1C [UVA-R01, reference compound]",
    "experimental result": 146
  }
]
